assayed system: wild-type human cardiac sodium channel, hNaV 1.5 (Peak INa) (Homo sapiens)
Sequence (Q14524 whole entry): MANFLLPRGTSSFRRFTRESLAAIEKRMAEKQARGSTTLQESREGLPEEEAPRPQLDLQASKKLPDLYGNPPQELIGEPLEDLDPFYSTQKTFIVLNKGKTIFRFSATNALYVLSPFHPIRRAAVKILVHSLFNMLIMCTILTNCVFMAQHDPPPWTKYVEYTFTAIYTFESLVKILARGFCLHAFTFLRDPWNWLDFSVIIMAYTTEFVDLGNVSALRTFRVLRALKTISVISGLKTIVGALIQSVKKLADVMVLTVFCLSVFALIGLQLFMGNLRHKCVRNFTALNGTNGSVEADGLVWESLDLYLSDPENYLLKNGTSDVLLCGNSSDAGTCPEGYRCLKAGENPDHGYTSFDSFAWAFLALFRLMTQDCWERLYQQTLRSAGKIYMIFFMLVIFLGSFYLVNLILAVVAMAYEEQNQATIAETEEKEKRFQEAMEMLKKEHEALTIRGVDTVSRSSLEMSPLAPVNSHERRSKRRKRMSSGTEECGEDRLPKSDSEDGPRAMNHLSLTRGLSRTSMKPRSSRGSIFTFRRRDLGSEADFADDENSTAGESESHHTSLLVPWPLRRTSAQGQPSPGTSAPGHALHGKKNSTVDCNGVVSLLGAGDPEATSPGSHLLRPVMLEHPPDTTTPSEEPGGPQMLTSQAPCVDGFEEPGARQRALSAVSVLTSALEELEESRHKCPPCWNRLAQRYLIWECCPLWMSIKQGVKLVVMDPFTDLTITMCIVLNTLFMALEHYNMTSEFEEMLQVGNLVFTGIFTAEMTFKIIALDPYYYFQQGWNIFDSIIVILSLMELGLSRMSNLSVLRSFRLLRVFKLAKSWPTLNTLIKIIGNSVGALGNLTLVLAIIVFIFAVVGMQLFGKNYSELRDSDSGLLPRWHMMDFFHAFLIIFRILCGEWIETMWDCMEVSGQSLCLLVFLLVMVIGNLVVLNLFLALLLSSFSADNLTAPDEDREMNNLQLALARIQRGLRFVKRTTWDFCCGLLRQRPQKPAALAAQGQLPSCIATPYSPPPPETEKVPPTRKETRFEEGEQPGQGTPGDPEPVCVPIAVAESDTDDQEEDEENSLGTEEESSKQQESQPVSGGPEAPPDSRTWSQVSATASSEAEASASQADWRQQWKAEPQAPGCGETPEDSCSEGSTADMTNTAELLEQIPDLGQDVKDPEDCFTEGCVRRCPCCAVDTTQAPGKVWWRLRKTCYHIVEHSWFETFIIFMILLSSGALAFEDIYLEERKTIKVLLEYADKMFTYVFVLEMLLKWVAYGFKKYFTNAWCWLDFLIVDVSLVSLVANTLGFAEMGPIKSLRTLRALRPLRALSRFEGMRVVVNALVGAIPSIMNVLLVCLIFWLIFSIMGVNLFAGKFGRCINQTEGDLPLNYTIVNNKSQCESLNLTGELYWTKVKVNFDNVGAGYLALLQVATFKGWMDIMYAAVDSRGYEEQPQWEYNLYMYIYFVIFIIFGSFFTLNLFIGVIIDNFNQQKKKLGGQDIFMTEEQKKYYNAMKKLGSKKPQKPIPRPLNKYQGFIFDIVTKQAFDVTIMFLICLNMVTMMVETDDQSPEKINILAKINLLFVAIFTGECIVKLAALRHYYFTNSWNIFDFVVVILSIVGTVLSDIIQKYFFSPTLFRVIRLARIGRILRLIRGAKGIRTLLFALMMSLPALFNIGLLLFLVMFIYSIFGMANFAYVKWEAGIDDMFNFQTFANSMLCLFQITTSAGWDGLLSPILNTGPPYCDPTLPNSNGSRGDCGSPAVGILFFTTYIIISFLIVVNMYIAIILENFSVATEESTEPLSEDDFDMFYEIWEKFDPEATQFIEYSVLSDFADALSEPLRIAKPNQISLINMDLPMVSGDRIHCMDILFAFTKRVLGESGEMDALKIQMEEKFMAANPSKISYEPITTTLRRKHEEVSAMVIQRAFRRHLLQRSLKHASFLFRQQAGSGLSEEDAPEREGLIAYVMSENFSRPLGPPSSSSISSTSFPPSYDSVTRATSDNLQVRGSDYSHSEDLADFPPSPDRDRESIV
assay protocol: Peak INa screening assay (tonic block and use-dependent block)
Type: cell-based
condition parameters: % inhibition, use-dependent block of peak INa at 3 uM; 3 Hz, pulse 50; read-out: Nav1.5 Peak UDB 3 Hz 3 uM
recorded endpoint: inhibition at 3 µM

# return recorded inhibition at 3 µM for input Cc1cccc(CN2Cc3cc(-c4ccc(OC(F)(F)F)cc4F)ccc3OC2=O)n1
< 5%

# return recorded inhibition at 3 µM for input COc1cc(OC(F)(F)F)ccc1-c1ccc2c(c1)CN(Cc1nccc(C)n1)C(=O)O2
< 5%

# return recorded inhibition at 3 µM for input Cc1cnc(CN2Cc3cc(-c4ccc(C(F)(F)F)cc4C)ccc3OC2=O)nc1
< 5%

# return recorded inhibition at 3 µM for input COc1cc(C(F)(F)F)ccc1-c1ccc2c(c1)CN(Cc1ncccn1)C(=O)O2
< 5%

# return recorded inhibition at 3 µM for input Cc1cnc(CN2Cc3cc(-c4ccc(OC(F)(F)F)cc4)ccc3OC2=O)nc1
< 5%

# return recorded inhibition at 3 µM for input Cc1cnc(CN2Cc3cc(-c4ccc(OC(F)(F)F)cc4F)ccc3OC2=O)nc1
< 5%

# return recorded inhibition at 3 µM for input Cc1cc(C(F)(F)F)ccc1-c1ccc2c(c1)CN(Cc1ncccn1)C(=O)O2
< 5%

# return recorded inhibition at 3 µM for input Cc1ccnc(CN2Cc3cc(-c4ccc(OC(F)(F)F)cc4C)ccc3OC2=O)n1
< 5%

# return recorded inhibition at 3 µM for input Cc1cc(OC(F)(F)F)ccc1-c1ccc2c(c1)CN(Cc1ncccn1)C(=O)O2
< 5%

# return recorded inhibition at 3 µM for input O=C1Oc2ccc(-c3ccc4c(c3)OC(F)(F)O4)cc2CN1Cc1ncccn1
< 5%
